System: HS 578T breast
assay: NCI tumour cell line growth inhibition, 48 h
assay-metric: TGI

Report TGI under test system HS 578T breast for `Cc1c2c(cc3c1C(=O)C(=O)C([C@@H](C)CO)=C3O)C(C)(C)CCC2` .
> 100 µM

Report TGI under test system HS 578T breast for CC1(C)C2CC(O)C1(C)CC2=O (configuration not stated) .
> 100 µM

Report TGI under test system HS 578T breast for `CCS(=O)(=O)c1ccc(OC)c(Nc2ncc(-c3cccc(C(C)=O)c3)o2)c1` .
> 25 µM

Report TGI under test system HS 578T breast for `COc1cc2oc(-c3ccc(O)cc3)cc(=O)c2c(OC)c1OC` .
> 100 µM

Report TGI under test system HS 578T breast for `CCOC(=O)/C=C/CC(C)(C)COC(C)=O` .
> 10 µM

Report TGI under test system HS 578T breast for `NCCCC[C@@H]1NC(=O)[C@H]2CCCN2C(=O)[C@H](Cc2ccccc2)NC(=O)[C@H](Cc2ccccc2)CNC1=O` .
> 100 µM

Report TGI under test system HS 578T breast for CC12Nc3c(Cl)cc(Cl)cc3N1C(=O)c1ccccc12 (configuration not stated) .
> 100 µM

Report TGI under test system HS 578T breast for `COc1cccc(Nc2nc(C)c([N+](=O)[O-])c(Nc3cccc(OC)c3)n2)c1` .
> 100 µM

Report TGI under test system HS 578T breast for CC1=NN(c2cccc(S(=O)(=O)O)c2)C2(C1)C(Cl)C(=O)N2c1nc2ccccc2s1 (configuration not stated) .
> 80.7 µM

Report TGI under test system HS 578T breast for O=C1CSC(c2ccccc2)N1c1nc2cc3sc(N4C(=O)CSC4c4ccccc4)nc3cc2s1 (configuration not stated) .
> 100 µM

Report TGI under test system HS 578T breast for NC(=O)NC1NC(=O)NC1=O (configuration not stated) .
> 100 µM

Report TGI under test system HS 578T breast for `COc1ccc(C(=O)c2cc(C)c(OC)c(C)c2)c(OC)c1N(C(=O)C(Cl)Cl)C(=O)C(Cl)Cl` .
> 100 µM
